Readings of IC50 for the listed molecules
# tested system: hCCR4 (Homo sapiens, UniProt P51679)
# assay info: Calcium flux assay
# measurement parameters: Chem5-hCCR4 cells, CCL22 at EC80 of 1.5 nM, FLIPR Calcium 6 dye; read-out: Potency (IC50)

So what's the measured IC50 for this one? CC(=O)NCCN1CCC[C@H](C2CN(c3cnc4c(C#N)nn([C@H](C)c5ccc(Cl)cc5Cl)c4n3)C2)C1 (single isomer, unassigned) [Example 92]
< 100 nM

Follow-up item: CC(O)CN1CCC[C@H](C2CN(c3cnc4c(C#N)nn([C@H](C)c5ccc(Cl)cc5Cl)c4n3)C2)C1 (single isomer, unassigned) [Example 28]
< 100 nM

Also check Cc1nn([C@H](C)c2ccc(Cl)cc2Cl)c2nc(N3CC([C@H]4CCCN(CCS(N)(=O)=O)C4)C3)cnc12 (single isomer, unassigned) [Example 6]
< 100 nM

---

# tested system: hCCR4 (Homo sapiens)
# assay info: Calcium flux assay
# Assay type: cell-based
# measurement parameters: Chem5-hCCR4 cells, CCL22 at EC80 of 1.5 nM, FLIPR Calcium 6 dye; read-out: Potency (IC50)
Measured IC50 accompanies every entry in the list below.

CC(C)C(=O)NCCN1CCC[C@H](C2CN(c3cnc4c(C(F)(F)F)nn([C@H](C)c5ccc(Cl)cc5Cl)c4n3)C2)C1 (single isomer, unassigned) [Example 89] ... < 100 nM
C[C@H](c1ccc(Cl)cc1Cl)n1nc(C(F)(F)F)c2ncc(N3CC(C4CCCN(CCNS(C)(=O)=O)C4)C3)nc21 (mixture of isomers) ... 100 to 500 nM
C[C@H](c1ccc(Cl)cc1Cl)n1nc(C#N)c2ncc(N3CC([C@H]4CCCN(Cc5cnc[nH]5)C4)C3)nc21 (single isomer, unassigned) ... < 100 nM

What value of measured IC50 is listed for COC(=O)NCCN1CCC[C@@H](C2CN(c3cnc4c(C)nn([C@H](C)c5ccc(Cl)cc5Cl)c4n3)C2)C1 (single isomer, unassigned) ?
< 100 nM

One more compound: C[C@H](c1ccc(Cl)cc1Cl)n1nc(C#N)c2ncc(N3CC([C@@H]4CCCN(CCC(N)=O)C4)C3)nc21 (single isomer, unassigned)
< 100 nM

Check Cc1nn([C@H](C)c2ccc(Cl)cc2Cl)c2nc(N3CC([C@@H]4CCCN(CCNC(=O)C(C)C)C4)C3)cnc12 (single isomer, unassigned) too.
< 100 nM

---

# tested system: hCCR4 (Homo sapiens, UniProt P51679)
# Sequence (P51679 1-360): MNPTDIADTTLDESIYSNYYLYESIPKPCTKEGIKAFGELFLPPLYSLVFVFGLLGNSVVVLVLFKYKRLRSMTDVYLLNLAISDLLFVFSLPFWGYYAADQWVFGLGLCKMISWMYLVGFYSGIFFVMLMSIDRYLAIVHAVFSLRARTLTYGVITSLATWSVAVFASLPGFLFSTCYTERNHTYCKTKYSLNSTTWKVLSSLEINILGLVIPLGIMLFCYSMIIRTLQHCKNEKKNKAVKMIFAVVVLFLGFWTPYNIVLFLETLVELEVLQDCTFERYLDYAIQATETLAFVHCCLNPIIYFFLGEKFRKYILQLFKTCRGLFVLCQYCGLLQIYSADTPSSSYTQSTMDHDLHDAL
# assay info: Calcium flux assay
# measurement parameters: Chem5-hCCR4 cells, CCL22 at EC80 of 1.5 nM, FLIPR Calcium 6 dye; read-out: Potency (IC50)
value type: IC50

Sample answers from the record:
Cc1nn([C@H](C)c2ccc(Cl)cc2Cl)c2nc(N3CC([C@@H]4CCCN(CCS(N)(=O)=O)C4)C3)cnc12 (single isomer, unassigned) ... > 500 nM
Cc1nn([C@H](C)c2ccc(Cl)cc2Cl)c2nc(N3CC([C@@H]4CCCN(CCCC(=O)O)C4)C3)cnc12 (single isomer, unassigned) ... 100 to 500 nM
CC(C)S(=O)(=O)NCCN1CCCC(C2CN(c3cnc4c(C(F)(F)F)nn([C@H](C)c5ccc(Cl)cc5Cl)c4n3)C2)C1 (mixture of isomers) ... < 100 nM
Cc1nn([C@H](C)c2ccc(Cl)cc2Cl)c2nc(N3CC([C@H]4CCCN(CCCC(=O)O)C4)C3)cnc12 (single isomer, unassigned) ... < 100 nM
CC(=O)NCCN1CCC[C@@H](C2CN(c3cnc4c(C#N)nn([C@H](C)c5ccc(Cl)cc5Cl)c4n3)C2)C1 (single isomer, unassigned) ... < 100 nM

Looking for the measured IC50 of CC(=O)NCCN1CCC[C@@H](C2CN(c3cnc4c(C(F)(F)F)nn([C@H](C)c5ccc(Cl)cc5Cl)c4n3)C2)C1 (single isomer, unassigned) [Example 53] , can you help?
100 to 500 nM

Try this compound next: C[C@H](c1ccc(Cl)cc1Cl)n1nc(C(F)(F)F)c2ncc(N3CC([C@H]4CCCN(CCO)C4)C3)nc21 (single isomer, unassigned)
< 100 nM

For Cc1nn([C@H](C)c2ccc(Cl)cc2Cl)c2nc(N3CC([C@@H]4CCCN(CCNS(C)(=O)=O)C4)C3)cnc12 (single isomer, unassigned) then?
100 to 500 nM

---

Below: a set of entries, each annotated with reported IC50.
# tested system: hCCR4 (Homo sapiens, UniProt P51679)
# assay info: Calcium flux assay
# measurement parameters: Chem5-hCCR4 cells, CCL22 at EC80 of 1.5 nM, FLIPR Calcium 6 dye; read-out: Potency (IC50)

Past entries and their recorded results:
Cc1nn([C@H](C)c2ccc(Cl)cc2Cl)c2nc(N3CC(C4CCCN(CCS(N)(=O)=O)C4)C3)cnc12 (mixture of isomers) ... 100 to 500 nM
CNC(=O)CCCN1CCC[C@H](C2CN(c3cnc4c(C#N)nn([C@H](C)c5ccc(Cl)cc5Cl)c4n3)C2)C1 (single isomer, unassigned) ... < 100 nM

So what's the measured IC50 for this one? "C[C@H](c1ccc(Cl)cc1F)n1nc(C#N)c2ncc(N3CC([C@H]4CCCN(CCO)C4)C3)nc21"
< 100 nM

// query: C[C@H](c1ccc(Cl)cc1Cl)n1nc(C#N)c2ncc(N3CC(C4CCCN(CCO)C4)C3)nc21 (single isomer, unassigned)
< 100 nM

Can you handle C[C@H](c1ccc(Cl)cc1Cl)n1nc(C#N)c2ncc(N3CC([C@H]4CCCN(CCCS(N)(=O)=O)C4)C3)nc21 (single isomer, unassigned) next?
< 100 nM

Another: C[C@H](c1ccc(Cl)cc1Cl)n1nc(C#N)c2ncc(N3CC([C@H]4CCN(CCCO)C4)C3)nc21 (single isomer, unassigned)
< 100 nM

Continue with "C[C@H](c1ccc(Cl)cc1Cl)n1nc(C(F)(F)F)c2ncc(N3CC([C@H]4CCCN(C[C@@H](C)O)C4)C3)nc21"
< 100 nM

Also check C[C@H](c1ccc(Cl)cc1Cl)n1nc(C(F)(F)F)c2ncc(N3CC([C@@H]4CCCN(CCO)C4)C3)nc21 (single isomer, unassigned)
100 to 500 nM

How about CC(=O)NCCN1CCC[C@H](C2CN(c3cnc4c(C(F)(F)F)nn([C@H](C)c5ccc(Cl)cc5Cl)c4n3)C2)C1 (single isomer, unassigned) ?
< 100 nM

Consider next the molecule CC(=O)NCCN1CCCC(C2CN(c3cnc4c(C)nn([C@H](C)c5ccc(Cl)cc5Cl)c4n3)C2)C1 (mixture of isomers) in the same way.
< 100 nM

Same thing, different molecule: Cc1nn([C@H](C)c2ccc(Cl)cc2Cl)c2nc(N3CC([C@H]4CCCN(CC(=O)O)C4)C3)cnc12 (single isomer, unassigned)
> 500 nM
